# Test system: A549 human lung carcinoma epithelial cells
# assay remarks: SRB cytotoxicity assay, A549 cells
# conditions: SRB assay, 72 h, highest concentration tested 100 µg/ml
quantity: cytotoxic response against A549 cells (in words)

[[record]]
mol_smiles = "Nc1ncnc2c1ncn2[C@H]1C[C@H](O)[C@@H](CO)O1"
tested_on = "A549 human lung carcinoma epithelial cells"
observed_value = "no cytotoxic response"

[[record]]
mol_smiles = "Nc1ccn([C@H]2C[C@H](O)[C@@H](CO)O2)c(=O)n1"
tested_on = "A549 human lung carcinoma epithelial cells"
observed_value = "no cytotoxic response"

[[record]]
mol_smiles = "Nc1cc[nH]c(=O)n1"
tested_on = "A549 human lung carcinoma epithelial cells"
observed_value = "no cytotoxic response"


---

# assay remarks: Ferric-reducing antioxidant power (FRAP) assay
# conditions: FeSO4 standard curve
Recorded FRAP values for a group of compounds are listed next.
Kindly provide the numeric value in µM only, without the unit symbol.

Solved cases (4 shown):
[[record]]
compound = "CCCCCCCCCCCCCCCC(=O)O"
observed_value = 88.06

[[record]]
compound = "CCCCCCCCCCCCCCCC(=O)OC [Compound 6, methyl palmitate]"
observed_value = 499.40

[[record]]
compound = "O=C1O[C@H]([C@@H](O)CO)C(O)=C1O [Ascorbic acid, ascorbic acid, reference compound]"
observed_value = 2847.40

[[record]]
compound = "CC(C)CCC[C@@H](C)[C@H]1CCC2[C@@]34C=C[C@]5(C[C@@H](O)CC[C@]5(C)C3CC[C@@]21C)OO4 (some centres unmarked) [Compound 10, 7-dehydrochoresterol peroxide]"
observed_value = 204.07


Below: the item to evaluate.
Incoming: Could you tell me which FRAP is on file for CCCCCCCCC1CC1CCCCCCCC(=O)O (centres unmarked) [Compound 7, dihydrosterculic acid] ?
Outgoing: 230.06

---

# System: ROS/RNS generation in RAW 264.7 cells
# assay remarks: Intracellular ROS/RNS levels in LPS-induced RAW 264.7 cells (H2DCF-DA)
# Type: cell-based
# conditions: Mus musculus, RAW264.7; RAW 264.7 cells, H2DCF-DA dye, LPS 1 μg/mL; read-out: IC50, inhibition of LPS-induced ROS/RNS generation
quantity: pIC50
Reminder that pIC50 means the negative base-10 logarithm of the concentration expressed in mol/L.

[[record]]
molecule = "CC(C)CCC[C@@H](C)[C@H]1CC[C@H]2[C@@H]3CC=C4C[C@@H](O)CC[C@]4(C)[C@H]3CC[C@]12C"
observed_value = 4.26


Here is the next item to consider.
Incoming: For COc1cc(/C=C/C(=O)CC(=O)/C=C/c2ccc(O)c(OC)c2)ccc1O [Curcumin, reference compound] , what is its reported pIC50?
Outgoing: 5.12

Hey, just so you know, these numbers are from paper PMC12203697.
